pIC50: −log10 of the molar value.
The compounds below each have a reported pIC50 tested on Histone deacetylase 3 (Homo sapiens, UniProt O15379); the values come from various publications.

ENTRY_SMILES	RELATION_QUALIFIER	pIC50
CS(=O)(=O)N(Cc1ccc(-c2nnc(C(F)(F)F)o2)cn1)c1cccc(Cl)c1	<	4.70
O=C(/C=C/c1cccc(S(=O)(=O)c2ccc3ccccc3n2)c1)NO	=	7.15
Nc1ccccc1NC(=O)CCCCCC(=O)Nc1cccc(C(F)(F)F)c1	=	7.33
COc1cc(Nc2nc(N3CCN(c4ncc(C(=O)NO)cn4)CC3)ncc2Cl)cc(OC)c1	=	6.66
Nc1ccc(-c2cccs2)cc1NC(=O)c1ccc2nc(N3CCNCC3)ccc2c1	=	5.89
CS(=O)(=O)N(Cc1ccc(C(=O)NN)cn1)c1cccc(Cl)c1	<	4.70
